Where do these numbers come from? They come from patent US20090111801A1.

system name: 5HT-Transporter (Homo sapiens, UniProt P31645)
Construct: Human platelet membranes (Oceanix Biosciences Corporation, Hanover, Md., USA) were thawed; tissue Oceanix Biosciences Corporation, Hanover, Md., USA; host or cells: human platelet membranes
Sequence (P31645 whole entry): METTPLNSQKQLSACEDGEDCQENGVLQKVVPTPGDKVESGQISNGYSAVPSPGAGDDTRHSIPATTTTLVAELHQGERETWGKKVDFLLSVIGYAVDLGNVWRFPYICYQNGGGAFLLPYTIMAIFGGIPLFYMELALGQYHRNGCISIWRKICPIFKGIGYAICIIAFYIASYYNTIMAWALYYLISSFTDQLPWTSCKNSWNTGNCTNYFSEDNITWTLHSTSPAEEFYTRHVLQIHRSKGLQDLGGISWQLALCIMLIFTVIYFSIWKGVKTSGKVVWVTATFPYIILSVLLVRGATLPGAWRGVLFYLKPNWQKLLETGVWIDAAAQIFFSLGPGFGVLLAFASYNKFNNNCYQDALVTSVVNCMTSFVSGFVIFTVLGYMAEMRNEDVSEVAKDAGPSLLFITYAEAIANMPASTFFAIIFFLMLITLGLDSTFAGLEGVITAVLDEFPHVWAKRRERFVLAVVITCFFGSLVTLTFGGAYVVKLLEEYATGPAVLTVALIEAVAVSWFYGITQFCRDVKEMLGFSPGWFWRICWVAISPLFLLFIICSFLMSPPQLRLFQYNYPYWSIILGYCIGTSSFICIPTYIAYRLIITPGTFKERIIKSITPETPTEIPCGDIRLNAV
measurement protocol: Binding experiment for the 5HT-transporter ([3H]paroxetine, human platelet membranes)
assay context: [3H]paroxetine 0.5 nM, read-out: h-5HTT pIC50 (converted)
// boundary case: IC50 equal to 800 nM maps to N; strictly smaller maps to Y

C/C(=C\c1ccccc1)CN1CCN(c2nccn(CC3CCCCC3)c2=O)CC1
N
C/C(=C\c1ccccc1)CN1CCN(c2nccn(CCCc3ccccc3)c2=O)CC1
N
C/C(=C\c1ccccc1)CN1CCC(Nc2nccn(Cc3cccc(Br)c3)c2=O)CC1
Y

Take the compound CCN(Cc1ccncc1)C(=O)Cn1ccnc(NC2CCN(C/C(C)=C/c3ccccc3)CC2)c1=O and say whether its IC50 is less than 800 nM. N

# strict comparison: is reported IC50 < 800 nM? input = C/C(=C\c1ccccc1)CN1CCC(Nc2nccn(CCCN(Cc3ccccc3)C(=O)c3ccccc3)c2=O)CC1 N
